AC50 values, listed per item
# System Under Test: human PAH with the R408W mutation (Homo sapiens, UniProt P00439, R408W)
# Construct: expressed in transfected cells
# Sequence (P00439 whole entry R408W): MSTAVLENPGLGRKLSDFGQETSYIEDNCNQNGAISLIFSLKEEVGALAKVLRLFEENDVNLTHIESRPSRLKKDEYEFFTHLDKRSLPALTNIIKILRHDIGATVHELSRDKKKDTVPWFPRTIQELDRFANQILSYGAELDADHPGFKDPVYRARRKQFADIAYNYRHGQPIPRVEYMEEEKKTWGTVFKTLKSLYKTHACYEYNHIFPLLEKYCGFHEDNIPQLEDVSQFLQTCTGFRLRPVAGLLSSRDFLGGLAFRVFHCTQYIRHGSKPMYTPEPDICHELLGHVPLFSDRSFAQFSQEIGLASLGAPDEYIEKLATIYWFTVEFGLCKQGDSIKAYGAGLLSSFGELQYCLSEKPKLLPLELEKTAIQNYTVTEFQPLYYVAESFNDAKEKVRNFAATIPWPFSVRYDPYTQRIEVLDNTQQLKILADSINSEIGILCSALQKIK
# Protocol Notes: Cell Based Phenylalanine Flux Assay
# Particulars: A375 cells expressing human R408W PAH; 24 hrs compound incubation; 13C-Tyrosine by LC-MS; average where tested multiple times; read-out: AC50

Cn1ccc(-c2nnc(C(=O)N3CCc4[nH]cnc4[C@H]3c3nc4c(F)cccc4s3)o2)n1
< 500 nM
CC(O)(c1nc(C(F)(F)F)c(C(=O)N2CCc3[nH]cnc3[C@@H]2c2nc3ccccc3s2)o1)C1CC1 (single isomer, unassigned) [Example 1563]
< 500 nM
COCc1nc(C(F)F)c(C(=O)N2CCc3[nH]cnc3[C@@H]2c2nc3ccccc3s2)o1
1000 to 5000 nM
Cc1nc(-c2cnn(C)c2)oc1C(=O)N1CCc2[nH]cnc2[C@@H]1c1nc2ccccc2s1
1000 to 5000 nM
Cn1cc(C(=O)N2CCc3[nH]cnc3[C@@H]2c2nc3c(F)cccc3s2)c(C(F)F)n1
1000 to 5000 nM
Cc1ccc2c(C(=O)N3CCc4[nH]cnc4[C@@H]3c3nc4c(F)cccc4s3)cnn2c1
1000 to 5000 nM
COCc1ccc2c(C(=O)N3CCc4[nH]cnc4[C@H]3c3nc4ccccc4s3)cnn2c1
500 to 1000 nM
CN(C)CCn1cc(C(=O)N2CCc3[nH]cnc3[C@@H]2c2nc3c(F)cccc3s2)c(C(F)(F)F)n1
500 to 1000 nM

Exam item: Query AC50 on human PAH with the R408W mutation (Homo sapiens, UniProt P00439, R408W) for "O=C(c1oc(-c2ccccn2)nc1C1CC1)N1CCc2[nH]cnc2[C@@H]1c1nc2c(F)cccc2s1"
Marked response: 1000 to 5000 nM

Exam item: Please answer likewise for "O=C(c1nnc(-c2ccc(F)cn2)o1)N1CCc2[nH]cnc2[C@H]1c1nc2c(F)cccc2s1"
Marked response: 1000 to 5000 nM

----------
# System Under Test: human PAH with the R408W mutation (Homo sapiens, UniProt P00439, R408W)
# Construct: expressed in transfected cells
# Protocol Notes: Cell Based Phenylalanine Flux Assay
# Particulars: A375 cells expressing human R408W PAH; 24 hrs compound incubation; 13C-Tyrosine by LC-MS; average where tested multiple times; read-out: AC50
Test Readout: AC50

Examples from the recorded data:
CC(C)n1ncc(C(=O)N2CCc3[nH]cnc3[C@@H]2c2nc3c(F)cccc3s2)c1Br
1000 to 5000 nM
Cn1ncc(C(=O)N2CCc3[nH]cnc3[C@H]2c2nc3c(F)cccc3s2)c1C(F)F
500 to 1000 nM
O=C(c1cnn2ccc(Br)cc12)N1CCc2[nH]cnc2[C@@H]1c1nc2cccc(F)c2s1
1000 to 5000 nM
O=C(c1sc(N2CCOCC2)nc1C(F)(F)F)N1CCc2[nH]cnc2[C@H]1c1nc2c(F)cccc2s1
< 500 nM
O=C(c1cnc(-c2cc(C(F)(F)F)ccn2)s1)N1CCc2[nH]cnc2[C@H]1c1nc2ccccc2s1
< 500 nM

Exam item: What AC50 value was documented for this compound, "N#Cc1ccn2ncc(C(=O)N3CCc4[nH]cnc4[C@@H]3c3nc4ccccc4s3)c2c1" ?
Marked response: 1000 to 5000 nM

Exam item: Please answer likewise for "Cc1c(C(=O)N2CCc3[nH]cnc3[C@H]2c2nc3c(F)cccc3s2)cnn1-c1ccccn1"
Marked response: 1000 to 5000 nM

Exam item: Please answer likewise for "Cn1cc(-c2ncc(C(=O)N3CCc4[nH]cnc4[C@H]3c3nc4ccccc4s3)s2)c(C2CC2)n1"
Marked response: < 500 nM

Exam item: Please answer likewise for "O=C(c1nccs1)N1CCc2[nH]cnc2[C@H]1c1nc2c(Cl)cccc2s1"
Marked response: 1000 to 5000 nM

Exam item: Please answer likewise for "Cn1nc(Cl)nc1C(=O)N1CCc2[nH]cnc2[C@H]1c1nc2c(F)cccc2s1"
Marked response: < 500 nM

Exam item: Please answer likewise for "O=C(c1scnc1Cl)N1CCc2[nH]cnc2[C@@H]1c1nc2c(F)cccc2s1"
Marked response: 1000 to 5000 nM

Exam item: Please answer likewise for "Cc1nc(C2(O)CCC2)oc1C(=O)N1CCc2[nH]cnc2[C@@H]1c1nc2c(F)cccc2s1"
Marked response: 1000 to 5000 nM

Exam item: Please answer likewise for "Cn1nc(Cl)nc1C(=O)N1CCc2[nH]cnc2[C@H]1c1nc2ccccc2s1"
Marked response: 500 to 1000 nM

Exam item: Please answer likewise for "O=C(Cc1nccs1)N1CCc2[nH]cnc2[C@H]1c1nc2cccc(Br)c2s1"
Marked response: 500 to 1000 nM

Exam item: Please answer likewise for "O=C(c1cnn(-c2ccccn2)c1Cl)N1CCc2[nH]cnc2[C@H]1c1nc2c(F)cccc2s1"
Marked response: 500 to 1000 nM

Exam item: Please answer likewise for "Cc1nc(C2(O)CC2)oc1C(=O)N1CCc2[nH]cnc2[C@@H]1c1nc2c(F)cccc2s1"
Marked response: > 5000 nM
